protocol summary: Inhibition of chymotrypsin-like activity of human inducible 20S immunoproteasome incubated for 15 mins before fluorogenic substrate addition
measured property: pIC50
Units for pIC50: none; it is -log10 of a concentration expressed in mol/L.

Please report pIC50 for the following compound: C[C@H](NC(=O)[C@H](Cc1ccc(OCc2ccccc2)cc1)NC(=O)c1ccc(-c2c3ccc(=[N+](C)C)cc-3oc3cc(N(C)C)ccc23)c(C(=O)[O-])c1)C(=O)N[C@@H](C[C@]1(O)C(=O)Nc2ccccc21)C(=O)NCc1ccccc1
6.38

Annotate the compound C[C@H](NC(=O)[C@H](Cc1ccc(OCc2ccccc2)cc1)NC(=O)OC(C)(C)C)C(=O)N[C@@H](C[C@]1(O)C(=O)Nc2ccccc21)C(=O)NCc1ccccc1 with its measured pIC50.
5.60

Give the measured pIC50 for C[C@H](NC(=O)[C@H](Cc1ccc(OCc2ccccc2)cc1)NC(=O)CCCCCNC(=O)CCCCCNC(=O)CCCCCNC(=O)c1ccc(-c2c3ccc(=[N+](C)C)cc-3oc3cc(N(C)C)ccc23)c(C(=O)[O-])c1)C(=O)N[C@@H](C[C@]1(O)C(=O)Nc2ccccc21)C(=O)NCc1ccccc1
6.17

// fetch pIC50 given entry C[C@H](NC(=O)[C@H](Cc1ccc(OCc2ccccc2)cc1)NC(=O)c1ccc(-c2c3ccc(=O)cc-3oc3cc(O)ccc23)c(C(=O)O)c1)C(=O)N[C@@H](C[C@]1(O)C(=O)Nc2ccccc21)C(=O)NCc1ccccc1
5.83

Quick one: give measured pIC50 for C[C@H](NC(=O)[C@H](Cc1ccc(OCc2ccccc2)cc1)NC(=O)CCCCCNC(=O)c1ccc(-c2c3ccc(=[N+](C)C)cc-3oc3cc(N(C)C)ccc23)c(C(=O)[O-])c1)C(=O)N[C@@H](C[C@]1(O)C(=O)Nc2ccccc21)C(=O)NCc1ccccc1
6.25

----------
So I've got a bunch of compounds here, and I need their viability at 1 h, 5 µM values.
protocol summary: Cytotoxicity against HEK293 cells assessed as cell survival at 5 uM incubated for 1 hr by XTT assay
Format: cell-based
study conditions: human, read-out: Survival
Value expressed in %; do not type the unit.

Name the recorded viability at 1 h, 5 µM of the item COC(=O)CCCCCNC(=O)c1ccc(-c2c3ccc(=[N+](C)C)cc-3oc3cc(N(C)C)ccc23)c(C(=O)[O-])c1 in your answer.
67.6

Output viability at 1 h, 5 µM of C[C@H](NC(=O)[C@H](Cc1ccc(OCc2ccccc2)cc1)NC(=O)c1ccc(-c2c3ccc(=[N+](C)C)cc-3oc3cc(N(C)C)ccc23)c(C(=O)[O-])c1)C(=O)N[C@@H](C[C@]1(O)C(=O)Nc2ccccc21)C(=O)NCc1ccccc1
90.1

Determine its reported viability at 1 h, 5 µM: C[C@H](NC(=O)[C@H](Cc1ccc(OCc2ccccc2)cc1)NC(=O)CCCCCNC(=O)c1ccc(-c2c3ccc(=[N+](C)C)cc-3oc3cc(N(C)C)ccc23)c(C(=O)[O-])c1)C(=O)N[C@@H](C[C@]1(O)C(=O)Nc2ccccc21)C(=O)NCc1ccccc1
78.2

Please report the measured viability at 1 h, 5 µM for C[C@H](NC(=O)[C@H](Cc1ccc(OCc2ccccc2)cc1)NC(=O)CCCCCNC(=O)CCCCCNC(=O)CCCCCNC(=O)c1ccc(-c2c3ccc(=[N+](C)C)cc-3oc3cc(N(C)C)ccc23)c(C(=O)[O-])c1)C(=O)N[C@@H](C[C@]1(O)C(=O)Nc2ccccc21)C(=O)NCc1ccccc1
100
